# Test system: houseflies (Musca domestica)
# experiment.description: Test Example 10: treated filter paper with sucrose, houseflies
# Format: in vivo
# test.settings: 500 ppm, 0.7 ml on filter paper with sucrose, female adult, after 24 hours
For each of the compounds below, state its mortality of insects.
One number for each entry, in %.

smiles.code	subject.of.test	mortality of insects [%]
CCS(=O)(=O)c1cccnc1-c1ccc(-n2cc(C(F)(F)F)cn2)nn1	houseflies (Musca domestica)	100
CCS(=O)(=O)c1cccnc1-c1ccc(-n2cnc(C(F)(F)F)c2)nn1	houseflies (Musca domestica)	100
CCS(=O)(=O)c1cccnc1-c1ccc(-n2ccc(C(F)(F)F)n2)nn1	houseflies (Musca domestica)	100

Could you now look at the following compound, please?
Reported mortality of insects for CCS(=O)(=O)c1cccnc1-c1ccc(-n2cnc(C(F)(F)F)n2)nn1 was 100
